A collection of compounds and their measured pest or weed control at 125 g/ha
Test system: giant foxtail (Setaria faberii)
test-summary: Test A postemergence
Type: in vivo
protocol-conditions: Setaria faberi, post-emergence, 240 h, 125 g ai/ha, Postemergence, visual rating about 10 d after treatment; read-out: Foxtail, Giant plant response rating (0 to 100 scale)
parameter-measured: pest or weed control at 125 g/ha (%)

>>> df
                                    compound                    target_entity                parameter_measured  reported_value
 0  COc1ccc([C@H]2CNC(=O)[C@@H]2C(=O)Nc2cccc(F)c2F)cc1  giant foxtail (Setaria faberii)  pest or weed control at 125 g/ha               0
 1  CN1C[C@H](c2ccc(C(F)(F)F)cc2)[C@@H](C(=O)Nc2ccccc2-n2cccn2)C1=O  giant foxtail (Setaria faberii)  pest or weed control at 125 g/ha               0
 2  CN1C[C@H](c2ccc(C(F)(F)F)nc2)[C@@H](C(=O)Nc2ccc(F)c(F)c2F)C1=O  giant foxtail (Setaria faberii)  pest or weed control at 125 g/ha              90
 3  Cc1nc([C@H]2CN(C)C(=O)[C@@H]2C(=O)Nc2ccccc2F)cs1  giant foxtail (Setaria faberii)  pest or weed control at 125 g/ha               0
 4  Cc1cc(F)cc([C@H]2CNC(=O)[C@@H]2C(=O)Nc2cccc(F)c2F)c1  giant foxtail (Setaria faberii)  pest or weed control at 125 g/ha              30
 5  CN1C[C@H](c2csc3c2CCC(F)(F)C3)[C@@H](C(=O)Nc2cccc(F)c2F)C1=O (racemic)  giant foxtail (Setaria faberii)  pest or weed control at 125 g/ha              50
 6  O=C1NC[C@H](c2cc(Br)cc(Br)c2)[C@H]1C(=O)Nc1cccc(F)c1F  giant foxtail (Setaria faberii)  pest or weed control at 125 g/ha              70
 7  COc1cc([C@H]2CN(C)C(=O)[C@@H]2C(=O)Nc2ccccc2S(C)(=O)=O)ccc1F  giant foxtail (Setaria faberii)  pest or weed control at 125 g/ha              30
 8  CN1C[C@H](c2csc3c2CCC(F)(F)C3)[C@@H](C(=O)Nc2ccc(F)c(F)c2F)C1=O (racemic)  giant foxtail (Setaria faberii)  pest or weed control at 125 g/ha              40
 9  O=C1NC[C@H](c2cccc(C(F)(F)F)c2)[C@H]1C(=O)Nc1ccccc1-n1cncn1  giant foxtail (Setaria faberii)  pest or weed control at 125 g/ha               0
10  O=C1NCC(c2ccccc2)C1C(=O)Nc1cc(F)ccc1F (centres unmarked)  giant foxtail (Setaria faberii)  pest or weed control at 125 g/ha               0
